- TEST SYSTEM: T1, hAng2 (Homo sapiens, UniProt O15123)
- T1 sequence (O15123 19-496): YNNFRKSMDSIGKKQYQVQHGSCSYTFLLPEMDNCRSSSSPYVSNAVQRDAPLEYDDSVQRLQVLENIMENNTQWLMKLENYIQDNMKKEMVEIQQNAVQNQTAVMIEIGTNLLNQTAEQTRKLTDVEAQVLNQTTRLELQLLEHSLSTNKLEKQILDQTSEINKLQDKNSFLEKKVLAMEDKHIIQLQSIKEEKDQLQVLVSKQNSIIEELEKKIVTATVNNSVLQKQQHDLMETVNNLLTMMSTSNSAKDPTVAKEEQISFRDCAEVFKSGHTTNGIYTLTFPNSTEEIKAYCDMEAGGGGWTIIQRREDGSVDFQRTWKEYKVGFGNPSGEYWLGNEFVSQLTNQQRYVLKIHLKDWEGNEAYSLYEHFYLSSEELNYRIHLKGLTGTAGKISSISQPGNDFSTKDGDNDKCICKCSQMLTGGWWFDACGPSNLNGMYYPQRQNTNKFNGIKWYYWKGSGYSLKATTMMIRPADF
- ASSAY COMMENT: OCTET affinity of humanized anti-Ang2 antibodies against hAng2
- Format: binding
- SETTINGS: OCTET, antibody fixed on AR2G biosensor, hAng2 50-0 nM, 1:1 binding model

[
  {
    "MOLECULE": "2C8H13: humanized anti-Ang2 antibody from mouse 2C8; VH SEQ ID NO: 95, VL SEQ ID NO: 96 (antibody, V domains shown, VH; VL) VH: QVQLVQSGAEVKKPGASVKVSCKASGYTFTSYWMHWVRQAPGQGLEWMGMIDPSDSETRLNQKFKDRVTMTRDTSTSTVYMELSSLRSEDTAVYYCARRFYYGSDWYFDVWGQGTLVTVSS VL: DIQLTQSPSFLSASVGDRVSITCKASQDVGTAVAWYQQKPGKAPKLLIYWASTRHTGVPDRFSGSGSGTEFTLTISSLQPEDFADYFCQQYSSYPLTFGQGTKVEIK",
    "UNIT TEXT": "M⁻¹ s⁻¹",
    "Kon": 113000
  },
  {
    "MOLECULE": "2C8H32: humanized anti-Ang2 antibody from mouse 2C8; VH SEQ ID NO: 83, VL SEQ ID NO: 84 (antibody, V domains shown, VH; VL) VH: QVQLVQSGAEVKKPGASVKVSCKASGYSFTSYWMHWVRQAPGQGLEWIGMIDPSDSETRLNQKFKDKASMTRDTSTSTVYMELSSLRSEDTAVYYCARRFYYGSDWYFDVWGQGTLVTVSS VL: DIQLTQSPSFLSASVGDRVSITCKASQDVGTAVAWYQQKPGKAPKLLIYWASTRHTGVPDRFSGSGSGTEFTLTISSLQPEDFATYYCQQYSSYPLTFGQGTKVEIK",
    "UNIT TEXT": "M⁻¹ s⁻¹",
    "Kon": 75700
  },
  {
    "MOLECULE": "2C8H11: humanized anti-Ang2 human IgG1 antibody from mouse 2C8; VH SEQ ID NO: 55, VL SEQ ID NO: 56 (antibody, V domains shown, human IgG1 constant regions; VH; VL) VH: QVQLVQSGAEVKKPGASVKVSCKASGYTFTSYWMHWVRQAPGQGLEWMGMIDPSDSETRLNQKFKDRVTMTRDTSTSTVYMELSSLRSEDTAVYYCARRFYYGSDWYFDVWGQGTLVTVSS VL: DIQLTQSPSFLSASVGDRVTITCKASQDVGTAVAWYQQKPGKAPKLLIYWASTRHTGVPSRFSGSGSGTEFTLTISSLQPEDFATYYCQQYSSYPLTFGQGTKVEIK",
    "UNIT TEXT": "M⁻¹ s⁻¹",
    "Kon": 66000
  },
  {
    "MOLECULE": "2C8H21: humanized anti-Ang2 antibody from mouse 2C8; VH SEQ ID NO: 59, VL SEQ ID NO: 60 (antibody, V domains shown, VH; VL) VH: QVQLVQSGAEVKKPGASVKVSCKASGYSFTSYWMHWVRQAPGQGLEWIGMIDPSDSETRLNQKFKDRVTMTRDTSTSTVYMELSSLRSEDTAVYYCARRFYYGSDWYFDVWGQGTLVTVSS VL: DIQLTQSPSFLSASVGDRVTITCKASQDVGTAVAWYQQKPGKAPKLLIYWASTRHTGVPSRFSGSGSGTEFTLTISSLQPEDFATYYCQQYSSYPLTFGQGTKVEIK",
    "UNIT TEXT": "M⁻¹ s⁻¹",
    "Kon": 111000
  }
]
